# Test system: MCF-7
# test-description: Growth inhibition, sulforhodamine B assay
# Assay type: cell-based, human
# condition-summary: Homo sapiens, MCF7, 72 hours, unit inferred
experimental-readout: IC50 (µM)
Give your result in µM as a bare value.

Q: Recorded IC50 of COCCn1c(Cc2cc(OC)c(OC)c(OC)c2)nc2c(N)nc(F)nc21 [PU44F] , please.
A: 64

Q: Recorded IC50 of C#CCCn1c(Cc2cc(OC)c(OC)c(OC)c2)nc2c(N)nc(F)nc21 [PU48F] , please.
A: 25

Q: Recorded IC50 of C=CCCn1c(Cc2cc(OC)c(OC)c(OC)c2)nc2c(N)nc(F)nc21 , please.
A: 33
